Let's look at some molecules and their measured MIC.
System: Escherichia coli
experimentDescription: Antimicrobial activity against azide-resistant aac(6')-Ib-cr deficient Escherichia coli J53 qnrA1 bearing pHS5 transconjugant from Enterobacter cloacae 641 by agar dilution method
Assay type: functional
A number alone suffices; assume µg/mL.

Worked cases, answers included:
NC[C@H]1O[C@H](O[C@H]2[C@H](O)[C@@H](O[C@H]3O[C@H](CO)[C@@H](O)[C@H](N)[C@H]3O)[C@H](N)C[C@@H]2N)[C@H](N)C[C@@H]1O [TOBRAMYCIN]
8
CC(C)(O/N=C(\C(=O)N[C@@H]1C(=O)N2C(C(=O)[O-])=C(C[n+]3ccccc3)CS[C@H]12)c1csc(N)n1)C(=O)O [CEFTAZIDIME]
32
CN[C@@H]1[C@H](O[C@H]2[C@H](O[C@H]3[C@H](O)[C@@H](O)[C@H](N=C(N)N)[C@@H](O)[C@@H]3N=C(N)N)O[C@@H](C)[C@]2(O)C=O)O[C@@H](CO)[C@H](O)[C@H]1O [STREPTOMYCIN]
8
CO/N=C(\C(=O)N[C@@H]1C(=O)N2C(C(=O)O)=C(COC(C)=O)CS[C@H]12)c1csc(N)n1 [CEFOTAXIME]
8

Here is another molecule to look at.
Enquiry: Which MIC is listed for NC[C@H]1O[C@H](O[C@H]2[C@H](O)[C@@H](O[C@H]3O[C@H](CO)[C@@H](O)[C@H](N)[C@H]3O)[C@H](N)C[C@@H]2N)[C@H](O)[C@@H](O)[C@@H]1O [KANAMYCIN] ?
Return: 64

src = ChEMBL document CHEMBL1137652
